Target: Caspase-7 (Homo sapiens, UniProt P55210)
Sequence (P55210 whole entry): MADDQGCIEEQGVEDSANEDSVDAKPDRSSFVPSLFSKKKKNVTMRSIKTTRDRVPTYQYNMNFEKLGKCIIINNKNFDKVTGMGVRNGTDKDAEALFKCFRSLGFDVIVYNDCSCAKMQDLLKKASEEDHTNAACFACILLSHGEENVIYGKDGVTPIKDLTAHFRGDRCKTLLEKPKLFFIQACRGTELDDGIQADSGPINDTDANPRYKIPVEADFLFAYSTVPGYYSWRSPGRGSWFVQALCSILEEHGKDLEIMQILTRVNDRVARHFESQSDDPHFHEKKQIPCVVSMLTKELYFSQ
Assay: Inhibition of human recombinant caspase-7 assessed as Ac-DEVD-AMC conversion to 7-amino-4-methylcoumarin incubated for 10 mins prior to substrate addition measured after 10 mins by spectrophotometric analysis
Value Kind: IC50 (nM)

1. COC[C@@H]1CCCN1S(=O)(=O)c1ccc2c(c1)C(=O)C(=O)N2CC[C@H](O)CO	103

[a] COC[C@@H]1CCCN1S(=O)(=O)c1ccc2c(c1)C(=O)C(=O)N2CC[C@@H](O)CO
[b] COC[C@@H]1CCCN1S(=O)(=O)c1ccc2c(c1)C(=O)C(=O)N2CC[C@H](F)CO
query: Hi there! Just curious which has the higher IC50 between a and b . To answer, give the label that identifies your chosen option.
result: a
(a: 128 nM, b: 0.951 nM)

[a] COC[C@@H]1CCCN1S(=O)(=O)c1ccc2c(c1)C(=O)C(=O)N2CC[C@@H](F)CO
[b] COC[C@@H]1CCCN1S(=O)(=O)c1ccc2c(c1)C(=O)C(=O)N2CC[C@H](O)CF
query: Pick one, a or b : lowest reported IC50. To answer, give the label that identifies your chosen option.
result: b
(b: 27 nM, a: 71 nM)

----------
Biological target: Caspase-1 (Homo sapiens) (UniProt P29466)
Sequence (whole entry): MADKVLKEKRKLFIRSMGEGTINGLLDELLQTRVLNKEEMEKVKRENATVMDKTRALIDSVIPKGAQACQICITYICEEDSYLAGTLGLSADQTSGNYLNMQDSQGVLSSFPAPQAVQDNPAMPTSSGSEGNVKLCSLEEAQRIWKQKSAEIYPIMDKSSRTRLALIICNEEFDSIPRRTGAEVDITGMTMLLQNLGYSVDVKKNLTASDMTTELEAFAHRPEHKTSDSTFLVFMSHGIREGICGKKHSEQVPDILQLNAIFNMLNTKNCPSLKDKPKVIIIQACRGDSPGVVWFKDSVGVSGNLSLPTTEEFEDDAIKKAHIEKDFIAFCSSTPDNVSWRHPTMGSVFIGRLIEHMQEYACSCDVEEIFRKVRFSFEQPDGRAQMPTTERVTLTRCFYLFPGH
Test: Inhibition of human recombinant caspase-1 assessed as Ac-YVAD-AMC conversion to 7-amino-4-methylcoumarin incubated for 10 mins prior to substrate addition measured after 10 mins by spectrophotometric analysis
The source made the active and inactive calls. The rule behind the calls is not given here.
Value Kind: inhibition

Solved entries (count: 5):
1. COC[C@@H]1CCCN1S(=O)(=O)c1ccc2c(c1)C(=O)C(=O)N2CC[C@H](O)CF	Active
2. COC[C@@H]1CCCN1S(=O)(=O)c1ccc2c(c1)C(=O)C(=O)N2CC[C@@H](F)CO	Active
3. COC[C@@H]1CCCN1S(=O)(=O)c1ccc2c(c1)C(=O)C(=O)N2CC[C@@H](O)CO	Active
4. COC[C@@H]1CCCN1S(=O)(=O)c1ccc2c(c1)C(=O)C(=O)N2CC[C@H](O)CO	Active
5. COC[C@@H]1CCCN1S(=O)(=O)c1ccc2c(c1)C(=O)C(=O)N2CC[C@@H](O)CF	Active

Could you now consider this next molecule?
Looking up `COC[C@@H]1CCCN1S(=O)(=O)c1ccc2c(c1)C(=O)C(=O)N2CC[C@H](F)CO` , I found its inhibition recorded as Active
